All values here come from patent US20230092389A1.

Assay: clinical
Settings: human, in vivo, inhaled or intranasal, 30 mg
Value type: half-life
// return the numeric value with its unit appended

The reported half-life of the molecule O=C(NCC1CCCCN1)c1cc(OCC(F)(F)F)ccc1OCC(F)(F)F (stereo not shown) [flecainide] was 4.67 min

* * *

Experiment: physchem
Settings: water
Value type: solubility

The reported solubility of the compound COc1ccc([C@@H]2Sc3ccccc3N(CCN(C)C)C(=O)[C@@H]2OC(C)=O)cc1 [diltiazem] was > 90 mg/mL

* * *

Test: clinical
Conditions: human, in vivo, inhaled or intranasal, 30 mg, Tmax (min after EOI)
Value type: Tmax

The reported Tmax of the compound O=C(NCC1CCCCN1)c1cc(OCC(F)(F)F)ccc1OCC(F)(F)F (stereo not shown) [flecainide] was ≤ 1 min
